Biological target: HEK 293 GPR73 (prokineticin 1 receptor) expressing cells (Homo sapiens, UniProt Q8TCW9)
Construct: expressed in transfected cells; host or cells: HEK 293
Sequence (Q8TCW9 whole entry): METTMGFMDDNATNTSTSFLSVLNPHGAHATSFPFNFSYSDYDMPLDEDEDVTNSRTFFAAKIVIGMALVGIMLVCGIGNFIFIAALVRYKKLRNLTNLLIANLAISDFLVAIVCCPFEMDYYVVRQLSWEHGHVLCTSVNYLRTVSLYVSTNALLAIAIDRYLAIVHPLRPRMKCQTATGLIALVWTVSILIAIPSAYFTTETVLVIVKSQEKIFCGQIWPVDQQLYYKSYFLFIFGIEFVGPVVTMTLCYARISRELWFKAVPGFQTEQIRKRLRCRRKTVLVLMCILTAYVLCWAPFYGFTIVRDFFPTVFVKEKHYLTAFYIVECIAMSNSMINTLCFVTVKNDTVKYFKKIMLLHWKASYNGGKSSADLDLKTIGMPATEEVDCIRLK
Test: PK1 functional assay: screening for PK1 antagonists on the FLIPR (calcium fluorescence)
Assay type: cell-based
Details: HEK293, compound at 10 μM, HEK 293 GPR73 cells, multiple values = repeat tests, read-out: Ca^2+ Mobilization % Inh @10 μM
Decision: inhibition at 10 µM >= 60% yields Fulfilled, all other cases yield Not fulfilled.

Before answering, review these 7 worked examples.
[[record]]
compound = "N=C(N)NCCNc1nc(=O)n(Cc2ccccc2)c(=O)n1Cc1ccc(OC(F)F)cc1 [Cpd 13]"
target_or_system = "HEK 293 GPR73 (prokineticin 1 receptor) expressing cells (Homo sapiens, UniProt Q8TCW9)"
answer_label = "Fulfilled"

[[record]]
compound = "COc1ccc(Cn2c(NCCNC(=N)N)nc(=O)n(Cc3ccccc3OC)c2=O)cc1 [Cpd 21]"
target_or_system = "HEK 293 GPR73 (prokineticin 1 receptor) expressing cells (Homo sapiens, UniProt Q8TCW9)"
answer_label = "Not fulfilled"

[[record]]
compound = "COc1ccc(Cn2c(OCCNC(=N)N)cc(=O)n(Cc3ccc(OC)cc3)c2=O)cc1 [Cpd 158]"
target_or_system = "HEK 293 GPR73 (prokineticin 1 receptor) expressing cells (Homo sapiens, UniProt Q8TCW9)"
answer_label = "Fulfilled"

[[record]]
compound = "COc1ccc(Cn2c(NCCNC(=N)N)nc(=O)n(Cc3ccc(C#N)cc3)c2=O)cc1 [Cpd 97]"
target_or_system = "HEK 293 GPR73 (prokineticin 1 receptor) expressing cells (Homo sapiens, UniProt Q8TCW9)"
answer_label = "Fulfilled"

[[record]]
compound = "COc1ccc(Cn2c(NCCNC(=N)N)nc(=O)n(Cc3cccc(N)c3)c2=O)cc1 [Cpd 96]"
target_or_system = "HEK 293 GPR73 (prokineticin 1 receptor) expressing cells (Homo sapiens, UniProt Q8TCW9)"
answer_label = "Not fulfilled"

[[record]]
compound = "NC(N)=NCCNc1nc(=O)n(Cc2ccc(Cl)cc2)c(=O)n1Cc1ccccc1 [Cpd 129]"
target_or_system = "HEK 293 GPR73 (prokineticin 1 receptor) expressing cells (Homo sapiens, UniProt Q8TCW9)"
answer_label = "Fulfilled"

[[record]]
compound = "N=C(N)NCCNc1nc(=O)n(Cc2ccccc2)c(=O)n1Cc1ccncc1 [Cpd 11]"
target_or_system = "HEK 293 GPR73 (prokineticin 1 receptor) expressing cells (Homo sapiens, UniProt Q8TCW9)"
answer_label = "Not fulfilled"


Now let's try a different one.
Ask | Is inhibition at 10 µM for CC(=O)Nc1ccc(Cn2c(NCCNC(=N)N)nc(=O)n(Cc3ccc(Cl)c(Cl)c3)c2=O)cc1 [Cpd 50] at or above 60%?
Reply | Fulfilled

----------
Biological target: HEK 293 GPR73 (prokineticin 1 receptor) expressing cells (Homo sapiens)
Assay: PK1 functional assay: screening for PK1 antagonists on the FLIPR (calcium fluorescence)
Details: HEK 293 GPR73 cells, PK1 ligand at EC50, multiple values = repeat tests, read-out: Ca^2+ Mobilization IC50
Lab note: anything with IC50 below 200 nM is marked met; values at 200 nM or higher are marked not met.

Before answering, review these 2 worked examples.
[[record]]
compound = "COc1ccc(Cn2c(NCCN(C(=N)N)c3ccccc3F)nc(=O)n(Cc3ccc(F)cc3)c2=O)cc1 [Cpd 118]"
target_or_system = "HEK 293 GPR73 (prokineticin 1 receptor) expressing cells (Homo sapiens)"
answer_label = "met"

[[record]]
compound = "N=C(N)NCCNc1nc(=O)n(Cc2ccc(Cl)c(Cl)c2)c(=O)n1Cc1ccc(OC2CCCC2)cc1 [Cpd 36]"
target_or_system = "HEK 293 GPR73 (prokineticin 1 receptor) expressing cells (Homo sapiens)"
answer_label = "not met"


Ask | Report whether reported IC50 is lower than 200 nM (strictly) for COc1ccc(Cn2c(NCCNC(=N)NCCc3ccccn3)nc(=O)n(Cc3ccc(F)cc3)c2=O)cc1 [Cpd 105]
Reply | met

Ask | Follow-up item: C=CCC(c1ccc(Cl)cc1)n1c(=O)nc(NCCNC(=N)N)n(Cc2ccc(OC)cc2)c1=O (stereo not drawn) [Cpd 83]
Reply | not met

Ask | Follow-up item: COc1ccc(Cn2c(NCCCCCNC(=N)N)nc(=O)n(Cc3ccc(Cl)cc3)c2=O)cc1 [Cpd 142]
Reply | not met

Ask | Follow-up item: COc1ccc(Cn2c(NCCNC(=N)N)nc(=O)n(Cc3cccs3)c2=O)cc1 [Cpd 78]
Reply | not met

Ask | Follow-up item: COc1ccc(Cn2c(NCCNC(=N)N)cc(=O)n(Cc3ccc(OC)cc3)c2=O)cc1 [Cpd 84]
Reply | met

Ask | Follow-up item: COc1ccc(CCn2c(=O)nc(NCCNC(=N)N)n(Cc3ccc(OC)cc3)c2=O)cc1 [Cpd 145]
Reply | not met

Ask | Follow-up item: CCCCCCCCCCNC(=N)NCCNc1nc(=O)n(Cc2ccc(F)cc2)c(=O)n1Cc1ccc(OC)cc1 [Cpd 108]
Reply | not met
